These measurements were taken from the supplement of paper PMC4466140.

target.or.system: ScLsb3
assay.overview: SPOT peptide array binding signal intensity (averaged, normalized) (arbitrary units (background-subtracted, floor 0; scale differs between SH3 domains)); higher = stronger binding of the SH3 domain to the peptide
Consider the following binders and their measured SPOT peptide array binding signal intensity readings.
Could you respond with only the numeric value?

Reference set, count: 5
{"binder": "GAGERPRLVPRPINV", "assay.result": 531}
{"binder": "QTREPNEPPPPSPAM", "assay.result": 13.5}
{"binder": "ALFRLSFFFPLDPAY", "assay.result": 674}
{"binder": "GLRRARYKFPGQQKI", "assay.result": 63}
{"binder": "SKIRPTPRKPSRMAT", "assay.result": 2130}

Name the recorded SPOT peptide array binding signal intensity for APPPPPRRATPEKKP .
1690

Name the recorded SPOT peptide array binding signal intensity for RVRKTHVPASKRPSG .
420
